Recorded AUC (p/s*h) for the following compounds
# Test system: Luc expression
# METHOD_DESCRIPTION: Luc expression in CD-1 mice (AUC relative to MC3)
# Format: in vivo
# RUN_PARAMETERS: Table 7c
Note: a bare number is incomplete; add the unit.

{"columns": ["COMPOUND", "AUC (p/s*h)"],
 "data": [
  ["CCCCCCCCCN(CCCCCC(=O)OCCC)CCC1CCN(C(=O)CN(CCCCCCCCC)CCN(CCCCCCCCC)CCCCCCCCC)CC1", "1.19E+11 p/s*h"]
]}

Determine its reported AUC (p/s*h): `CCCCCCCCCN(CCCOC(=O)CCCCC)CCC1CCN(C(=O)CN(CCCCCCCCC)CCN(CCCCCCCCC)CCCCCCCCC)CC1` 4.65E+11 p/s*h

Complete the entry with AUC (p/s*h) for `CCCCCCCCCN(CCCCCCCCC)CCN(CCCCCCCCC)CC(=O)N1CCN(C(=O)CN(CCCCCCCCC)CCCCCC(=O)OCCC)CC1` 1.89E+10 p/s*h

Fill in reported AUC (p/s*h) for this entry: CCCCCC=CCC=CCCCCCCCCC(CCCCCCCCC=CCC=CCCCCC)OC(=O)CCCN(C)C (stereo not drawn) [MC3, reference compound] 1.42E+11 p/s*h

Answer with reported AUC (p/s*h) of `CCCCCCCCCN(CCCCCCCCC)CCN(CCCCCCCCC)CC(=O)N1CCN(C(=O)CN(CCCC(=O)OCCCCC)CCCC(=O)OCCCCC)CC1` 6.53E+10 p/s*h

Quickly give me recorded AUC (p/s*h) for `CCCCCCCCCN(CCCCCCCCC)CCN(CCCCCCCCC)CC(=O)N1CCN(C(=O)CN(CCCCCCCCC)CCCOC(=O)CCCCC)CC1` 1.77E+11 p/s*h

* * *

# METHOD_DESCRIPTION: pKa of nanoparticle compositions
# Type: physicochemical
# RUN_PARAMETERS: Table 20-1; rows without footnote mark
Listing of recorded pKa by entry.
// print number alone

In the examples that follow, each entry is paired with its recorded pKa.
{"columns": ["COMPOUND", "MEAS_VALUE"],
 "data": [
  ["CCCCCCCCCN(CCO)CCN(CCCCCCCCC)CCCCCCCCC [Compound 20-16]", 6.62],
  ["CCCCCCCCCCCCN(CCO)CCN(CCCCCCCCCCCC)CCCCCC(=O)OCCCCCCC [Compound 20-7]", 6.66],
  ["CCCCCCCCCCCCN(CCCO)CCN(CCCCCCCCCCCC)CCCCCCCCCCCC [Compound 20-21]", 5.78],
  ["CCCCCCCCCCCCN(CCCCCCCCCCCC)CCN(CCO)CCCCCCCCC [Compound 20-17]", 6.25],
  ["CCCCCCCCCCCCCCN(CCCCCCCCCCCCCC)CCN(CCCO)CCCCCCCCCCCC [Compound 20-11]", 5.38],
  ["CCCCCCCCCCCCN(CCCCCCCCCCCC)CCNCCO [Compound 20-19]", 4.73],
  ["CCCCCCCCCCCCN(CCO)CCN(CCCCCC(=O)OCCCCC)CCCCCC(=O)OCCCCC [Compound 20-4]", 6.86]
]}

Respond only with pKa recorded for CCCCC/C=C\C/C=C\CCCCCCCCN(CCO)CCN(CCCCCCCC/C=C\C/C=C\CCCCC)CCCCCCCC/C=C\C/C=C\CCCCC [Compound 20-14] 5.89
